Please provide measured melting temperature for the entries that follow.
- Test system: HeLa Kyoto
- measurement.notes: melting temperature (median over replicates), in situ; higher = more thermally stable
- condition.summary: cell cycle stage: G1/S
Numbers only, in °C.

MALKQEMAKSLLKTASLSGRTKLLHQTGLSLYSTSHGFYEEEVKKTLQQFPGGSIDLQKEDNGIGILTLNNPSRMNAFSGVMMLQLLEKVIELENWTEGKGLIVRGAKNTFSSGSDLNAVKSLGTPEDGMAVCMFMQNTLTRFMRLPLISVALVQGWALGGGAEFTTACDFRLMTPESKIRFVHKEMGIIPSWGGTTRLVEIIGSRQALKVLSGALKLDSKNALNIGMVEEVLQSSDETKSLEEAQEWLKQFIQGPPEVIRALKKSVCSGRELYLEEALQNERDLLGTVWGGPANLEAIAKKGKFNK [ECHDC1] : 56.5

Switching to the query record.
-- ask Write melting temperature of MNPNCARCGKIVYPTEKVNCLDKFWHKACFHCETCKMTLNMKNYKGYEKKPYCNAHYPKQSFTMVADTPENLRLKQQSELQSQVRYKEEFEKNKGKGFSVVADTPELQRIKKTQDQISNIKYHEEFEKSRMGPSGGEGMEPERRDSQDGSSYRRPLEQQQPHHIPTSAPVYQQPQQQPVAQSYGGYKEPAAPVSIQRSAPGGGGKRYRAVYDYSAADEDEVSFQDGDTIVNVQQIDDGWMYGTVERTGDTGMLPANYVEAI [LASP1] ; system used: HeLa Kyoto;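 also: HeLa Kyoto cells synchronized by double thymidine or nocodazole block, proteins quantified by TMT10plex mass spectrometry, three independent biological replicates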
-- reply 58.7
